# self-cleavage values compiled below
B1: CPEB3 Ribozyme (parent)
chain: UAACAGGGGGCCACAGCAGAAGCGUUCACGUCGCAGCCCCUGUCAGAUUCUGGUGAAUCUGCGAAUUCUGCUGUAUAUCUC

Variants of: B1
experiment summary: self-cleavage, relative activity (ratio to wild type); higher = more cleavage; in vitro, sequencing
Just the number.

sequence code	self-cleavage
UAACGGGGGGCCUCAGCAGAAGCGUUCACGUCGCAGCCCCUGUCAGAUUCUGGUGAAUCUGCGAAUUCUGCUGUAUAUCUC [A5G A13U]	0.98
UAACUGGGGGCCACAGCAGAAGCGUUCACGUCGCAGCCCCUGUCAGAUUCUGGUGUAUCUGCGAAUUCUGCUGUAUAUCUC [A5U A56U]	0.9
UAACAGGGGGCCACAGCAGAAGCGUUAACGUCGCAGCCCCUGUCAGAUUCUGGUGAAUCUGCGGAUUCUGCUGUAUAUCUC [C27A A64G]	0.33
UAACAGGGGGCCACUGCAGAAGCGUUCACGUCGCAGCCCCUGUCAGAUUCUGGUGAAUCAGCGAAUUCUGCUGUAUAUCUC [A15U U60A]	0.32
UAACAGGGGGCCACAGCAGUAGCGUUCACGUCGCAGCCCCUGUCAGAUUCUGGUGUAUCUGCGAAUUCUGCUGUAUAUCUC [A20U A56U]	0.25

Ask | Look at this variant and give its reported self-cleavage. UAACAGGGGGCCACAGCAGAAGCGUUCACGUCGCAGCCCCUGUCAGAUUCUGGUGAAUCCGCGACUUCUGCUGUAUAUCUC [U60C A65C]
Reply | 0.17
